Source listed as ChEMBL document CHEMBL1154753.

# test.description: Inhibition of HCV RNA dependent RNA polymerase
# Set-up: species or system Hepacivirus hominis
pIC50: −log10 of the molar value.
measured.endpoint: pIC50

smiles.notation	measurement
O=C(O)c1ccc(F)cc1NS(=O)(=O)c1cccc(-c2cnn(Cc3ccccc3)c2)c1	< 4.70
O=C(O)c1ccccc1NS(=O)(=O)c1cccc(-c2cnn(Cc3ccccc3)c2)c1	< 4.70
O=C(O)c1ccc(F)cc1NS(=O)(=O)c1cccc(-c2cnn(Cc3ccc4ccccc4c3)c2)c1	< 4.70

* * *

# assay.system: DNA polymerase beta (Homo sapiens, UniProt P06746)
measured.endpoint: IC50

smiles.notation	measurement
O=C(O)c1ccc(F)cc1NS(=O)(=O)c1cccc(-c2cnn(Cc3ccccc3)c2)c1	> 20 µM
